Listing of entries alongside the reported GI50.
Test system: A498
Method summary: NCI tumour cell line growth inhibition, 48 h
The source made the active and inactive calls. Cut-off read from the data, not from the text of the source: active = GI50 up to about 1.1 µM and inactive = higher.

O=C(c1ccncc1)n1nc(-c2ccccc2)c(/N=N/c2ccc([N+](=O)[O-])cc2)c1-c1ccccc1; > 100 µM (inactive)

### Prompt Report GI50 from A498 testing of COc1cccc(NC(=S)Nn2c(C)nc3ccccc3c2=O)c1
### Response > 100 µM (inactive)

### Prompt Report GI50 from A498 testing of COc1cc2c(cc1OC)C1(c3ccc(Cl)cc3)ON=C(c3ccccc3)N1CS2 (stereo unspecified)
### Response 83.2 µM (inactive)

### Prompt Report GI50 from A498 testing of O=[N+]([O-])C(C=C(n1nnc2ccccc21)n1nnc2ccccc21)=C(n1nnc2ccccc21)n1nnc2ccccc21
### Response > 100 µM (inactive)

### Prompt Report GI50 from A498 testing of CC1CCC(=O)NCCCCC(=O)N1 (stereo unspecified)
### Response > 100 µM (inactive)

### Prompt Report GI50 from A498 testing of O=c1oc2cc(O)ccc2c2[nH]c3cc(O)ccc3c12
### Response 36.1 µM (inactive)

### Prompt Report GI50 from A498 testing of O=C(CSc1nc2ccc(I)cc2c(=O)n1Cc1ccccc1)Nc1ccc(Br)cc1
### Response 22.5 µM (inactive)

### Prompt Report GI50 from A498 testing of CN(C(=O)C12C3C4C1C1C2C3C41C#N)C(C)(C)C (stereo unspecified)
### Response > 100 µM (inactive)

### Prompt Report GI50 from A498 testing of ClCCN1CCO/C1=N/c1ccc2c(c1)CCCC2
### Response 6.92 µM (inactive)

### Prompt Report GI50 from A498 testing of CN(C)CC1CCCC(CN(C)C)C1OC(=O)c1ccccc1 (stereo unspecified)
### Response > 100 µM (inactive)

Data provenance is ChEMBL document CHEMBL1201862.
